assay_endpoint: logP

Q: # logP lookup, item O=[N+]([O-])c1ccc(Oc2ccccc2)cc1
A: 3.92

Q: # logP lookup, item CCOC(=O)C(C)Oc1cc(Oc2ccc(C(F)(F)F)cc2Cl)ccc1[N+](=O)[O-] (stereo not drawn)
A: 4.53

Q: # logP lookup, item COC(=O)c1cc(S(=O)c2ccc(C(F)(F)F)cc2Cl)ccc1[N+](=O)[O-] (stereo not drawn)
A: 3.65

Q: # logP lookup, item O=[N+]([O-])c1ccc(Oc2ccc(C(F)(F)F)cc2Cl)cc1
A: 4.54

Q: # logP lookup, item C#CCOC1=Nc2cc(OC(=O)N3CCCC3)c(Cl)cc2OC1
A: 2.93

Q: # logP lookup, item O=C(Oc1ccccc1)N1CCCC1
A: 2.73

Q: # logP lookup, item CCOC(=O)C(C)OC(=O)c1cc(Oc2ccc(C(F)(F)F)cc2Cl)ccc1[N+](=O)[O-] (stereo not drawn)
A: 4.81

Q: # logP lookup, item COC(=O)c1cc(Oc2cc(C(F)(F)F)ccc2Cl)ccc1[N+](=O)[O-]
A: 4.21

* * *

Can you tell me logP for the items I'm about to list?
Could you keep your reply to the number by itself?

Q: # logP lookup, item CCOc1cc(Oc2ccc(C(F)(F)F)cc2Cl)ccc1[N+](=O)[O-]
A: 4.73

Q: # logP lookup, item O=[N+]([O-])c1ccc(Oc2ccc(C(F)(F)F)cc2Cl)cc1Oc1ccoc1
A: 4.33

Q: # logP lookup, item C#CCOc1cc(OC(=O)N2CCC(F)(F)C2)c(Cl)cc1Cl
A: 3.42

Q: # logP lookup, item O=C(Oc1cc(O)c(Cl)cc1Cl)N1CCCC1
A: 2.98

Q: # logP lookup, item O=C(Oc1ccc(Cl)cc1)N1CCCC1
A: 3.38

Q: # logP lookup, item CC(C)OC(=O)c1cc(OC(=O)N2CCCC2)c(F)cc1Cl
A: 4.22

Q: # logP lookup, item COC(=O)c1cc(Oc2ccc(C(F)(F)F)cc2Cl)ccc1Cl
A: 5.04

Q: # logP lookup, item O=C(Oc1ccccc1Cl)N1CCCC1
A: 3.13

Q: # logP lookup, item C#CCOc1cc(OC(=O)N2CCCCC2)c(Cl)cc1Cl
A: 4.25

Q: # logP lookup, item Nc1c([N+](=O)[O-])ccc(Oc2ccccc2)c1Cl
A: 4.04

Q: # logP lookup, item C#CCOc1cc(OC(=O)N2CCC(F)(F)CC2)c(Cl)cc1Cl
A: 3.57

Q: # logP lookup, item COC(=O)CON=C(C)c1cc(Oc2ccc(C(F)(F)F)cc2Cl)ccc1[N+](=O)[O-]
A: 4.54

* * *

assay_endpoint: logP
Could you keep your reply to the number by itself?

Q: # logP lookup, item C#CCOc1cc(OC(=O)N(CC)CC)c(Cl)cc1Cl
A: 3.95

Q: # logP lookup, item CC(C)OC(=O)c1cc(OC(=O)N2CCCC2)c(Cl)cc1Cl
A: 4.67

Q: # logP lookup, item O=C(O)COC(=O)c1cc(Oc2ccc(C(F)(F)F)cc2Cl)ccc1[N+](=O)[O-]
A: 4.27

Q: # logP lookup, item COC(=O)c1cc(Oc2ccc(C(F)(F)F)cc2Cl)ccc1[N+](=O)[O-]
A: 4.26

Q: # logP lookup, item O=C(Oc1ccc(Cl)cc1Cl)N1CCCC1
A: 3.94

Q: # logP lookup, item C=COC(=O)C(C)Oc1cc(Oc2ccc(C(F)(F)F)cc2Cl)ccc1[N+](=O)[O-] (stereo unspecified)
A: 4.54

Q: # logP lookup, item COC(=O)c1cc(Sc2ccc(C(F)(F)F)cc2Cl)ccc1[N+](=O)[O-]
A: 4.76

Q: # logP lookup, item COC(=O)c1cc(OC(=O)N2CCCC2)c(Cl)cc1Cl
A: 3.95

Q: # logP lookup, item COC(=O)c1cc(S(=O)(=O)c2ccc(C(F)(F)F)cc2Cl)ccc1[N+](=O)[O-]
A: 3.57

Q: # logP lookup, item C#CCOc1cc(OC(=O)N2CCCC2)c(Cl)cc1Cl
A: 3.82

Q: # logP lookup, item Cc1cccc(Oc2ccc([N+](=O)[O-])cc2)c1
A: 4.4
